biological target: Torsin-1A (Homo sapiens) (UniProt O14656); experiment: TOR1A wild-type binding on microarray – cell lysate, small-molecule microarray, lysate, 635/667 nm, primary screen (AID 1149); settings: COS7 hTOR1A-WT lysate, 635 nm fluorescence, higher = more signal
Sequence (O14656 whole entry, looked up): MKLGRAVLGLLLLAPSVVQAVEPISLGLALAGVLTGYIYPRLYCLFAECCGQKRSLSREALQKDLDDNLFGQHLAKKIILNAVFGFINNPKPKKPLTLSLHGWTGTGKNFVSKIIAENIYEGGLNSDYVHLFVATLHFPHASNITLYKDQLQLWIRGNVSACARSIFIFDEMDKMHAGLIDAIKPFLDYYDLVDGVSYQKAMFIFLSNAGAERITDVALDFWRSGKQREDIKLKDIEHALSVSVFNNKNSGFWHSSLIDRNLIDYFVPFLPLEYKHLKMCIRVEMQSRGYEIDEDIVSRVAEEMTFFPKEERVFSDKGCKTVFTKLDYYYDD
metric: composite z-score
Give bare numbers.

COc1ccc([Si](C)(C)[C@H]2[C@H](CC(=O)N3CCC[C@H]3CO)O[C@@]3(C(=O)N(c4ccccc4)c4ccccc43)[C@@H]2C)cc1 | 0.656
Cc1ccc(S(=O)(=O)N2CC(C(=O)O)=CCC2c2ccccc2)cc1 (stereo not drawn) | 1.08

Dear reader, for each entry below, please note its composite z-score.
1. C=CC[C@]1(C(=O)O)N=C(c2ccc(OCCCO)cc2)O[C@H]1c1ccccc1CN=[N+]=[N-]
2. CCCNC(=O)[C@@]1(C)c2ccccc2C(=O)N(Cc2ccc(OC(F)(F)F)cc2)[C@H]1c1ccc(CO)cc1
3. O=C1OCC=C[C@H]2OC34C=CCN(Cc5ccccc5)C(=O)[C@H]3N(CCCO)C(=O)[C@@H]4[C@@H]12 (stereo partly drawn)
4. O=C(CS)NCCCCCCNC(=O)[C@H]1C[C@H]2C(=O)N3CCC[C@H]3C(=O)N2[C@H]1c1ccc(O)cc1

a:
0.0499
0.243
-0.667
0.624

Dear reader, for each entry below, please note its composite z-score.
1. CN1C(=O)C2C=CC(C(O)c3ccccc3)N(NC(=O)OC(C)(C)C)C2C1=O (stereo not drawn)
2. C=CCC(OC(C)=O)[C@@H]1[C@@H](N(Cc2ccc(-c3cccc(C(F)(F)F)c3)o2)C(=O)Cc2ccc(OC)cc2)c2cc(OCCCO)ccc2N1C(=O)Cc1ccc(OC)cc1 (stereo partly drawn)

a:
-0.365
-2.51
